endpoint label: IC50 (µM)
State the answer as a number, implicitly in µM.

The measured IC50 that O=C(O)c1cc[c]([Hg][OH])cc1 [pHMB, ρ-hydroxymercuribenzoic acid] showed for Sortase A (Streptococcus mutans, UniProt Q8CM62) is 24.5
